Hey, just so you know, these numbers are from patent EP4768499A1.

Assay: Membrane permeability test using Caco-2 cells with preincubation
Assay type: in vitro ADME
Details: Caco-2; preincubation 20 to 24 hours; Apical FaSSIF/HBSS pH 6.0, Basal HBSS 4% BSA pH 7.4; 180 minutes; read-out: Caco2 Papp
Description: The permeability coefficient (Caco-2 Papp (cm/sec)) is calculated using a numerical expression 1. [Expression 1] Papp = (1)/(C1 (0) × S) × (dQ)/(dt) [formula] dQ/dt represents the permeation rate of drug (the amount of drug appearing on the Basal side per unit time), S represents the total surface area of cells, and C1(0) represents the concentration of drug added on the Apical side. […]
Positions of bridges follow the written chain, without caps; N, C: chain ends. Non-standard residues stand in square brackets, D forms with d. Residues, ends and D or L forms follow the SMILES beside them. *: point of attachment. NMeF = CN[C@@H](Cc1ccccc1)C(=O)O; NMeI = CC[C@H](C)[C@H](NC)C(=O)O; NMeT = CN[C@H](C(=O)O)[C@@H](C)O; hPhe = N[C@@H](CCc1ccccc1)C(=O)O; NMeL = CN[C@@H](CC(C)C)C(=O)O; NMeV = CN[C@H](C(=O)O)C(C)C; NMeAbu = CC[C@H](NC)C(=O)O; NMeA = CN[C@@H](C)C(=O)O; Piperidide = C1CCN(*)CC1; Sar = CNCC(=O)O
# maps each entry to its Papp A→B
The figure you give is taken to be in ×10⁻⁶ cm/s; do not add the unit.

compound	assay_readout	result
CC[C@H](C)[C@@H]1NC(=O)[C@H](CC(C)C)N(C)C(=O)C[C@@H](C(=O)N2CCCCC2)NC(=O)[C@H](Cc2ccccc2)N(C)C(=O)[C@H](C(C)C)NC(=O)[C@@H]2CCCN2C(=O)[C@H]([C@@H](C)CC)NC(=O)[C@H](CC)N(C)C(=O)[C@H](C(C)C)N(C)C(=O)[C@H](CC(C)C)NC(=O)[C@H](CC(C)C)N(C)C(=O)[C@H]([C@@H](C)O)NC(=O)[C@H](Cc2ccccc2)NC(=O)CN(C)C1=O [pd029] ([NMeL]I[Sar]FT[NMeL]L[NMeV][NMeAbu]IPV[NMeF]D-Piperidide; lactam N-14)	Papp A→B	0.02

query: Which Papp A→B value belongs to CC[C@H](C)[C@H]1C(=O)N(C)[C@@H]([C@@H](C)O)C(=O)N(C)[C@@H](CC)C(=O)N(C)[C@@H](CC(C)C)C(=O)N2CCC[C@H]2C(=O)N[C@H](C(=O)N2CCCCC2)CC(=O)N(C)[C@@H](C)C(=O)N[C@@H](CC(C)C)C(=O)N(C)[C@@H](CC(C)C)C(=O)N(C)[C@@H](C)C(=O)N2CCC[C@H]2C(=O)N[C@@H](CCc2ccccc2)C(=O)N(C)[C@@H](CC(C)C)C(=O)N1C [pd125] ([NMeA]L[NMeL][NMeA]P[hPhe][NMeL][NMeI][NMeT][NMeAbu][NMeL]PD-Piperidide; lactam N-13) ?
result: 0.13

---

This listing pairs molecules with measured Mouse Hepatic Microsome CLh,int NADPH(-).
assay: Metabolic stability test: liver microsomal stability assay; format: in vitro ADME, mouse; conditions: mouse liver microsomes 0.5 mg protein/mL, compound 1 µM, absence of NADPH
Non-standard residues stand in square brackets, D forms with d. Residues, ends and D or L forms follow the SMILES beside them. *: point of attachment. NMeF = CN[C@@H](Cc1ccccc1)C(=O)O; NMeL = CN[C@@H](CC(C)C)C(=O)O; NMeV = CN[C@H](C(=O)O)C(C)C; d(β3hA) = C[C@@H](N)CC(=O)O; NMeA = CN[C@@H](C)C(=O)O; dNMeA = CN[C@H](C)C(=O)O; tBu = CC(C)(C)*
Field format: number, assumed µL/min/mg Protein, no unit text.

query: Would you kindly share the measured Mouse Hepatic Microsome CLh,int NADPH(-) for CC[C@H](C)[C@@H]1NC(=O)[C@@H]2CCCN2C(=O)[C@H](C(C)C)N(C)C(=O)[C@H](CC(C)C)NC(=O)[C@@H](C)N(C)C(=O)C[C@@H](C)NC(=O)[C@H](C(C)C)N(C)C(=O)[C@H](Cc2ccccc2)N(C)C(=O)[C@H](COC(C)(C)C)NC(=O)[C@H](CC(C)C)N(C)C(=O)[C@H](C)N(C)C(=O)[C@H](CC(C)C)N(C)C(=O)[C@H]([C@@H](C)O)NC(=O)[C@H](Cc2ccccc2)N(C)C1=O [pd054] (cyclo(I[NMeF]T[NMeL][NMeA][NMeL]S(tBu)[NMeF][NMeV][d(β3hA)][dNMeA]L[NMeV]P)) ?
result: 25.1
